All figures here come from patent US10093664B2.

pKd values for the compounds below.
assayed system: human DLK (Homo sapiens (Human), UniProt Q12852)
test protocol: biochemical
Assay type: binding
condition set: Table 2b DLK activity (global); read-out: Kd
pKd: −log10 of the molar value.
quantity name: pKd

[
  {
    "compound": "CC(C)Cc1nc(-c2cnc(N)c(C(F)(F)F)c2)cn1C12CC(N3CCOCC3)(C1)C2",
    "assayed system": "human DLK (Homo sapiens (Human), UniProt Q12852)",
    "test result": 8.22
  },
  {
    "compound": "CN1CCN(C23CC(n4cc(-c5cnc(N)c(C(F)(F)F)c5)nc4C4CC4)(C2)C3)CC1",
    "assayed system": "human DLK (Homo sapiens (Human), UniProt Q12852)",
    "test result": 8.12
  },
  {
    "compound": "CCC(C)c1nc(-c2cnc(N)c(OC(F)F)c2)cn1C12CC(N3CCOCC3)(C1)C2 (stereo not drawn)",
    "assayed system": "human DLK (Homo sapiens (Human), UniProt Q12852)",
    "test result": 7.68
  }
]
